Origin of values: patent US20240052042A1

- test_system: T1, human Natriuretic Peptide Receptor 1 (hNPR1) (human, UniProt P16066 33-473, limits assumed)
- T1 construct: pannings used NPR1-hFc; also called NPR1-hFc
- T1 sequence: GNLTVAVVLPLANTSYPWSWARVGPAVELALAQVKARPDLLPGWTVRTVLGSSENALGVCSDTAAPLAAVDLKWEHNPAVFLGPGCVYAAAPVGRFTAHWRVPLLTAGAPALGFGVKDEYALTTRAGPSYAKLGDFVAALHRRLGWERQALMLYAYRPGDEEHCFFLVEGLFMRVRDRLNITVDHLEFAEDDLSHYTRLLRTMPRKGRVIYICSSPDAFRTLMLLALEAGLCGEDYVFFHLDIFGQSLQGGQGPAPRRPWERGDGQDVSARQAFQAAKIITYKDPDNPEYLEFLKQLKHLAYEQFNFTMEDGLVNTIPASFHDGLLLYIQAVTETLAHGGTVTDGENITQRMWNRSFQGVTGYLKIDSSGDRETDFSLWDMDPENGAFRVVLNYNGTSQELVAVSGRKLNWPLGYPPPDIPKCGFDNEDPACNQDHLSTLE
- method_notes: SET, FabCys

binder	units_text	Kd
XX06 (FabCys format) (Fab, V domains shown, Monovalent FabCys) VH: QVQLLESGGGLVQPGGSLRLSCAASGFTFSSYWMNWVRQAPGKGLEWVSAISSDGSYTYYADSVKGRFTISRDNSKNTLYLQMNSLRAEDTAVYYCARDRYSMIYSYGAGAFDYWGQGTLVTVSS VL: DIQMTQSPSSLSASVGDRVTITCRASQGISSYLAWYQQKPGKAPKLLIYTASTLQSGVPSRFSGSGSGTDFTLTISSLQPEDFATYYCQQTWRKPRTFGQGTKVEIK	nM	10
XX12 (FabCys format) (Fab, V domains shown, Monovalent FabCys) VH: QVQLLESGGGLVQPGGSLRLSCAASGFTFSSYWMNWVRQAPGKGLEWVSAISSDGSYTYYADSVKGRFTISRDNSKNTLYLQMNSLRAEDTAVYYCARDRYSMIYSYGAGAFDYWGQGTLVTVSS VL: DIQMTQSPSSLSASVGDRVTITCRASQGISSYLAWYQQKPGKAPKLLIYTASTLQSGVPSRFSGSGSGTDFTLTISSLQPEDFATYYCQQIWMAPRTFGQGTKVEIK	nM	16
XX08 (FabCys format) (Fab, V domains shown, Monovalent FabCys) VH: EVQLLESGGGLVQPGGSLRLSCAASGFTFNTHYIHWVRQAPGKGLEWVSSIGGQGGMTLYADSVKGRFTISRDNSKNTLYLQMNSLRAEDTAVYYCARERGYVYYHMFDPWGQGTLVTVSS VL: DIVLTQSPATLSLSPGERATLSCRASQSITRNYLAWYQQKPGQAPRLLIYGASSRATGIPARFSGSGSGTDFTLTISSLEPEDFAVYYCQQHSMYPRTFGQGTKVEIK	nM	46
XX04 (FabCys format) (Fab, V domains shown, Monovalent FabCys) VH: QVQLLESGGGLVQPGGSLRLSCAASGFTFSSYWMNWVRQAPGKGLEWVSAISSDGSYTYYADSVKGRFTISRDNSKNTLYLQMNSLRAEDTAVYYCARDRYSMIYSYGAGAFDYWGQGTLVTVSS VL: DIQMTQSPSSLSASVGDRVTITCRASQGISSYLAWYQQKPGKAPKLLIYTASTLQSGVPSRFSGSGSGTDFTLTISSLQPEDFATYYCQQEWVKPRTFGQGTKVEIK	nM	32
